Measured values drawn from PubChem BioAssay for this set.

target: Fibroblast growth factor 10 (Homo sapiens); assay: compounds binding fibroblast growth factor 10 – biochemical, small-molecule microarray, 635 nm fluorescence, primary screen (AID 1102); conditions: FGF10 binding, fluorescence 635 nm, higher = more signal
Below: a set of entries, each annotated with reported composite z-score.
Answer field: number only, no words.

Examples from the recorded data:
COMPOUND	TESTED TARGET	composite z-score
O=C1OCCC=C[C@H]2OC34C=CCN(Cn5nnc6ccccc65)C(=O)[C@H]3N(CCCO)C(=O)[C@@H]4C12 (some centres undefined)	Fibroblast growth factor 10 (Homo sapiens)	-0.583
COCC(=C=CC[C@H](O)c1ccc(OCCO)cc1)CCO	Fibroblast growth factor 10 (Homo sapiens)	0.4
O=C1N(CCS(=O)(=O)c2ccccc2)c2ccccc2[C@H]2OC(c3ccc(OCCCO)cc3)=N[C@@]12Cc1ccccc1	Fibroblast growth factor 10 (Homo sapiens)	0.896

Recorded composite z-score (compound `C=CC[C@@H](OC(=O)Nc1ccc(SC)cc1)c1ccc(O)c(F)c1` ): 0.214
